observation-type: melting point

Below: 5 molecules and their reported melting point.
[[record]]
molecule = "CCC1(CC)OC(=O)c2cc([N+](=O)[O-])ccc21"
val = "98.5 to 100 °C"

[[record]]
molecule = "CC(C)=CCN(C(=O)OC(C)(C)C)c1ccc(OC2CCN(C(=O)OC(C)(C)C)CC2)cc1"
val = "145 to 148 °C"

[[record]]
molecule = "COc1c2ccccc2c(-c2c(-c3c4ccccc4c(OC)c4ccccc34)c2=O)c2ccccc12"
val = "265 to 270 °C"

[[record]]
molecule = "Cc1ccc(-c2cc[nH]c2)cc1"
val = "92 to 93 °C"

[[record]]
molecule = "CC(=O)Nc1ccc(C2=NNC(=O)C3CC23)cc1 (stereo not given)"
val = "269 to 270 °C"


Query :: Using known records, supply melting point for "CC(C)(C)n1[nH]c(Cc2ccncc2)c2c(=O)nc(-c3ccncc3)nc1-2"
Result :: 233 to 235 °C

Query :: Identify the reported melting point for the following entry. "COc1ccccc1C(C)(O)c1ccccc1OC"
Result :: 122 to 123 °C

Query :: Please report the measured melting point for "CCc1scc(C(=O)OC)c1NC(=O)C(F)(F)F"
Result :: 55 to 56 °C

Query :: Tell me melting point reported for "CSc1ccc(Oc2ccc(Cl)c(Cl)c2)nc1C#N"
Result :: 156 to 158 °C

Query :: Give a short answer stating reported melting point for "O=C(NC1(COc2ccc(Br)cc2)COC1)OCc1ccccc1" .
Result :: 101 to 103 °C

Query :: Quote melting point reported for "COC(=O)C#CC(=O)c1ccc(Cl)c(Cl)c1" please.
Result :: 58 to 59 °C

Query :: Find the measured melting point of "Cc1nc2c(O)c(CC[C@H](O)c3ccccc3)c(C(=O)N(C)C)cn2c1C" and report it.
Result :: 185 to 187 °C

Query :: Hello, please tell me recorded melting point for this one: COCC1CCCN1Cc1ccc2cc(NC(=O)c3ccc(-c4ccc(Cl)cc4)cc3)ccc2n1 (stereo not given)
Result :: 172 to 174 °C

Query :: Input "COc1cc2c(cc1OC)CN(CCCCNC(=O)c1cc(C)ccc1OCCF)CC2" , output reported melting point.
Result :: 131 to 133 °C

Query :: Complete the entry with melting point for CCOC(=O)C1CN(Cc2ccccc2)C(=O)C(=C2SC=CS2)C1=O (stereo not given)
Result :: 127 to 129 °C

Query :: Note down melting point recorded for "CC(C)(C)OC(=O)Nc1ccc(C#Cc2ccc(F)cc2F)cc1N"
Result :: 113 to 116 °C

Query :: Fill in reported melting point for this entry: "Oc1ccc(-n2nc3ccccc3n2)cc1"
Result :: 216 to 218 °C

Query :: Using the record for CC(=O)N1N=C(c2ccc([N+](=O)[O-])c(C)c2)c2cc3c(cc2CC1C(N)=O)OCO3 (stereo not given) , state its measured melting point.
Result :: 157 to 161 °C

Query :: Complete the entry with melting point for "O=C(O)COc1ccc2c(=O)c3c(Cl)cccc3oc2c1Cl"
Result :: 270 to 271 °C

Query :: Please look at this molecule and report its melting point: "Cc1ccc(-c2ccnc3c(C(=O)c4cccs4)cnn23)cc1NC(=O)CC(C)C"
Result :: 185 to 187 °C

Query :: Consider the molecule "CCOC(=O)c1c(C)cc2cnc(-c3ccccc3C(F)(F)F)nc2c1C" and give its recorded melting point.
Result :: 68 to 69 °C

Query :: Determine its reported melting point: "CC(=O)OCCSCn1cnc2c(Cl)ncnc21"
Result :: 82 to 87 °C

Query :: Check the records and state melting point for "CC(C)CCNC(=O)c1cc2c(Nc3cccc(Cl)c3)ncnc2[nH]1"
Result :: 304 to 306 °C
